// data source = patent US20250051338A1

Target: TYK2 (Homo sapiens)
Sequence (P29597 whole entry): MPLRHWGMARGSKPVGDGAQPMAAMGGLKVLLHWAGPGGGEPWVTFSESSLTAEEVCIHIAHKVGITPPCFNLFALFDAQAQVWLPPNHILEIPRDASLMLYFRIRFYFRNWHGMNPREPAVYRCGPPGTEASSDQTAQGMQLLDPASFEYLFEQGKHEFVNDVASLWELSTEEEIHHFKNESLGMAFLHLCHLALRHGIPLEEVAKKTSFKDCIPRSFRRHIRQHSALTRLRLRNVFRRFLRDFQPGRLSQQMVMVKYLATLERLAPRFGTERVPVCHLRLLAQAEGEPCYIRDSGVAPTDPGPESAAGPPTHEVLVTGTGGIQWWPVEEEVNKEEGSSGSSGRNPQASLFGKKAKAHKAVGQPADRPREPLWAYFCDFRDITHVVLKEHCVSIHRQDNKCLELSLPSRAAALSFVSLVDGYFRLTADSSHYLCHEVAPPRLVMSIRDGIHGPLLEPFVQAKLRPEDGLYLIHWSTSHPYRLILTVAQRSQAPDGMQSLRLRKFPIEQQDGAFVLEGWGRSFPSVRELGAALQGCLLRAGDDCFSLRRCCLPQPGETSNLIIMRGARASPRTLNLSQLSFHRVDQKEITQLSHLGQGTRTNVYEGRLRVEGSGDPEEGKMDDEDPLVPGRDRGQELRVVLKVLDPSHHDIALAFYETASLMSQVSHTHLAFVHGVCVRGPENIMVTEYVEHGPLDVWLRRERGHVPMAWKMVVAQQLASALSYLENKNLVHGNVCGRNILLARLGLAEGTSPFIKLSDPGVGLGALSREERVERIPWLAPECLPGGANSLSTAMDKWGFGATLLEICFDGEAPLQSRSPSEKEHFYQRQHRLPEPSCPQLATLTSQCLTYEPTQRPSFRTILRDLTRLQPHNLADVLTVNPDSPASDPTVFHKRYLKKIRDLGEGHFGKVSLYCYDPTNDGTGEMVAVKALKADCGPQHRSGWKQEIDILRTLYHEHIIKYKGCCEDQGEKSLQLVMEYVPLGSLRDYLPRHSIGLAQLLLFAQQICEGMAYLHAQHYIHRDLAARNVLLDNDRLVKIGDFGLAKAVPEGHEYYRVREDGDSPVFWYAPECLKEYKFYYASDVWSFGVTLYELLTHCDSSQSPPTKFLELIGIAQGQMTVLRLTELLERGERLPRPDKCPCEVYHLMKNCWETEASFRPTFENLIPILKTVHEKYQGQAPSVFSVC
Assay: TYK2 degradation MSD assay in OCI-LY10 cells
Assay type: cell-based
Parameters: endogenous in cells; host or cells: EBV-B cells
Details: 4 to 24 hours incubation, read-out: TYK2 MSD DC50 rating in OCI-LY10
MEASURED QUANTITY: DC50

Some compounds with known DC50 results, for comparison:
compound="CNC(=O)c1cnc(Nc2cc(C(=O)NCCCCc3cccc4c3n(C)c(=O)n4C3CCC(=O)NC3=O)ccn2)cc1Nc1cccc(-c2ncc(F)cn2)c1OC (centres unmarked) [Example K128]" recorded_value="> 100 nM"
compound="COc1c(Nc2cc(C(F)F)c3ncc(C(=O)N[C@@H]4C[C@@H]4F)n3n2)cccc1-c1ccc(CN2CCN(c3ccc(-c4ccc5c(c4)n(C)c(=O)n5C4CCC(=O)NC4=O)cc3)CC2)cn1 (mixture of isomers) [Example K539]" recorded_value="> 100 nM"

Return reported DC50 values for all items listed beneath this line.
1. CNc1cc(Nc2cccc(-c3ccc(CN4CCN(c5ccc(-c6ccc7c(c6)n(C)c(=O)n7C6CCC(=O)NC6=O)cc5)CC4)cn3)c2OC)nn2c(-c3cn(C(C)C)nn3)cnc12 (centres unmarked) [Example K630]
2. CNc1cc(Nc2cccn(-c3ccc(C(=O)NCCCCCCCc4ccc5c(c4)n(C)c(=O)n5C4CCC(=O)NC4=O)cn3)c2=O)nn2c(C(=O)N[C@@H]3C[C@@H]3F)cnc12 (some centres unmarked) [Example K260]
3. CNc1cc(Nc2cccn(-c3ccc(C(=O)N(C)CCCOC4CCN(c5ccc6c(c5)n(C)c(=O)n6C5CCC(=O)NC5=O)CC4)cn3)c2=O)nn2c(C(=O)N[C@@H]3C[C@@H]3F)cnc12 (some centres unmarked) [Example K438]

["1 to 10 nM", "> 100 nM", "1 to 10 nM"]
